assay: Half life in Beagle dog at 2 mg/kg,iv measured at 0.083 to 24 hrs post administration by LC-MS/MS analysis; assay type: ADME, organism-based, Canis lupus familiaris; conditions: Beagle, in vivo, time 0.083-24 hrs
Observed Property: half-life (h)
Numbers only; they are read as h.

• COCCCOc1cc2c(cc1Cl)-c1cc(=O)c(C(=O)O)cn1[C@H](C(C)C)CO2 = 1.4

Shift focus to the following entry.
Return reported half-life. Input compound: `COCCCOc1cc2c(nc1OC)-c1cc(=O)c(C(=O)O)cn1[C@H](C(C)C)C2`
2.3

* * *

tested on: Hepatitis B virus; assay: Antiviral activity against HBV infected in human HepG2.2.15 cells assessed as inhibition of HBsAg level incubated for 6 days by microplate-based chemiluminescence immunoassay; assay type: functional, organism-based; details: HepG2 2.2.15, 144 h
// values below are reported EC50
Numbers only; they are read as nM.

• CC(C)C1Cc2sc(Cl)cc2-c2cc(=O)c(C(=O)O)cn21 (stereo not given) = 21000

Return reported EC50. Input molecule: `COCCCOc1cc2c(cc1C)-c1cc(=O)c(C(=O)O)cn1[C@H](C(C)C)CO2`
39

Return reported EC50. Input molecule: CC(C)C1Cc2sccc2-c2cc(=O)c(C(=O)O)cn21 (stereo not given)
2400

Return reported EC50. Input molecule: COCc1nc2c(s1)CC(C(C)C)n1cc(C(=O)O)c(=O)cc1-2 (stereo not given)
3000

Return reported EC50. Input molecule: `CC(C)[C@@H]1COc2cc(OCC3CC3)c(Cl)cc2-c2cc(=O)c(C(=O)O)cn21`
32

Return reported EC50. Input molecule: COc1cc2c(nc1OC)-c1cc(=O)c(C(=O)O)cn1C(C(C)C)C2 (stereo not given)
14

Return reported EC50. Input molecule: COc1cc2c(cc1Cl)-c1cc(=O)c(C(=O)O)cn1C(C(C)C)CO2 (stereo not given)
76
